system: TK-10; test: NCI tumour cell line growth inhibition, 48 h
Activity calls are given as the source filed them. No stated cut-off is given here; in the data, active = GI50 up to about 1.1 µM and inactive = higher.
GI50 by entry:

In [3]: df
Out[3]:
                                   molecule  reported_property       endpoint_value
0  CNC(=O)C(C)NC(=O)C(Cc1ccccc1)NC(=O)c1ccccc1 (stereo not given)               GI50  > 100 µM (inactive)
1                  O=C1CCN2C(=N1)Sc1ccccc12               GI50  > 100 µM (inactive)
2  COc1cc2c(c(O)c1O)-c1ccc(OC)c(=O)cc1C(NC(C)=O)CC2 (stereo not given)               GI50   64.3 µM (inactive)

**Q:** Which GI50 is reported for this molecule? CN(C)CCNC(=O)c1cc2ccccc2c2nc3ccccc3nc12
**A:** 1.23 µM (inactive)

**Q:** Which GI50 is reported for this molecule? CCCC(=O)Oc1ccc(/C=N/NC(N)=S)nc1
**A:** > 100 µM (inactive)
